Tested on: woolly cupgrass (Eriochloa villosa)
procedure details: Test B pre-/postemergence plant response
Format: in vivo
run conditions: Postemergence, 31 g ai/ha; scale 0 to 100, 0 no effect, 100 complete control
property: Plant response rating, Cupgrass, Woolly
A bare number is all that is needed in reply.

Please review the entries below; each comes with its answer.
{"columns": ["molecule", "system under test", "measured result"],
 "data": [
  ["Cc1cc(-c2ccc(C(F)(F)F)c(F)c2)nn1-c1c(O)c(C(F)(F)F)nn(C)c1=O [Compound 44]", "woolly cupgrass (Eriochloa villosa)", 100],
  ["CCCc1cc(-c2ccc(Cl)cc2)nn1-c1c(O)cnn(C)c1=O [Compound 43]", "woolly cupgrass (Eriochloa villosa)", 95],
  ["CCc1cc(-c2ccc(C(F)(F)F)cc2)nn1-c1c(OC(=O)OC(C)C)cnn(C)c1=O [Compound 12]", "woolly cupgrass (Eriochloa villosa)", 100]
]}

Read the next record carefully.
Which Plant response rating, Cupgrass, Woolly is reported for this molecule? Cc1cc(-c2ccc(Br)cc2)nn1-c1c(OC(=O)C2CC2)cnn(C)c1=O [Compound 5]
95
